The values you see were collected from patent US20230242662A1.

Biological target: T1, huCD46-His (human, UniProt P15529 35-343)
T1 construct: extracellular domain; Immobilised by amine coupling on the SPR chip; It may be the same protein as the ELISA antigen; also called Human CD46-His; human CD46; not shown: His tag
T1 sequence (looked up): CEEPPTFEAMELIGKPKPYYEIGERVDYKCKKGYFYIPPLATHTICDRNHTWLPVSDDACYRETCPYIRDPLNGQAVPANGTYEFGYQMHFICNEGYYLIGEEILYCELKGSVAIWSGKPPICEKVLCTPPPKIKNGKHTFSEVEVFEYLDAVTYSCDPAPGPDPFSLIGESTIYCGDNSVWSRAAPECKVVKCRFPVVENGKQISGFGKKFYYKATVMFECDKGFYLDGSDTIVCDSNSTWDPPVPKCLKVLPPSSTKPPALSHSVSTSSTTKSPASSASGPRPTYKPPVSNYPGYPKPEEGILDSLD
Experiment: SPR, huCD46-His immobilised, antibody as analyte, pH 7.4
endpoint name: Kd (nM)
Answers are plain numbers, in nM.

binder	readout units	Kd
BA-133-04-02 (antibody, V domains shown, also called CPE hit BA133-04-02) VH: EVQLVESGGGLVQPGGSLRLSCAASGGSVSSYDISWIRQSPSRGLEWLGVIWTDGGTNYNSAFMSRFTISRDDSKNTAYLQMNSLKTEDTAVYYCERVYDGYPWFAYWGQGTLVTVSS VL: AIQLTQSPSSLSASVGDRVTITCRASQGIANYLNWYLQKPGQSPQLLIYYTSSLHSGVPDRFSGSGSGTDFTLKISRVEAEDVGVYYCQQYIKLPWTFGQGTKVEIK	nM	4.17

Let's switch to this binder now.
Inquiry: Bench note: what Kd did BAP133-2-02-12 (antibody, V domains shown, also called BAP133-02-02-12; CPE hit BAP133-2-02-12) VH: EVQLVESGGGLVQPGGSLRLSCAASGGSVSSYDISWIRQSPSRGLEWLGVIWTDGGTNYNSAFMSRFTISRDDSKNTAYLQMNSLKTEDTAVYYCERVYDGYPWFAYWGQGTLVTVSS VL: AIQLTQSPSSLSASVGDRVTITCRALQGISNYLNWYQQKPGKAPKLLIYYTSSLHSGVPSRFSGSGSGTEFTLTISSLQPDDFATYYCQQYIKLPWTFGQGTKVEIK show?
Reply text: 8.79
